Tested on: HCC-2998 colon
Test: NCI-60 one-dose screen, 48 h (100 = growth as untreated, 0 = no growth, -100 = all killed)
Settings: 10 µM unless noted
About 83,000 compounds went through this panel and 20% of them were active in at least one assay; those are over-represented in the sample as a whole.
observationType: growth (%)
API: value field is a number in %; no unit string.

| compound | unitsText | growth |
| --- | --- | --- |
| COC(=O)C(Cc1cn(C(C)=O)c2ccccc12)P(=O)(OC)OC (centres undefined) | % | 103 |
| O=S(=O)(O)c1ccc2cc(O)ccc2c1 | % | 109 |
| CC1(C)CC(=O)NC1=O | % | 102 |
| COc1ccc2nccc(Cl)c2c1 | % | 115 |
| CC(C)=NOC(C)C(=O)O (centres undefined) | % | 100 |

Q. For the compound `CCCC(=O)Oc1ccc2ccccc2c1` , what growth is on record?
A. 97.9

Q. Which growth is reported for this compound? `Nc1ccc(Cl)c(S(=O)(=O)O)c1`
A. 110

Q. Return reported growth; argument: `CN(C)C(=N)N=C(N)N`
A. 115

Q. # growth lookup, item Clc1ccc2c(c1)N(C1CCCN(Cc3ccccc3)C1)c1ccccc1S2 (centres undefined)
A. 23

###

Tested on: SN12C renal
Assay: NCI-60 one-dose screen, 48 h (100 = growth as untreated, 0 = no growth, -100 = all killed)
Settings: 10 µM unless noted
The panel holds about 83,000 compounds, 20% with a hit somewhere; the sample as a whole holds those more often.
observationType: growth (%)
Report the value in % with no unit label.

Take a look at these entries with their results.
| compound | observationType | assayResult |
| --- | --- | --- |
| O=COCCCc1ccccc1 | growth | 105 |
| COc1ccc(CCO)cc1 | growth | 100 |
| O=C(O)c1cccc(Br)c1 | growth | 104 |
| CCOP(=O)(OCC)/C(C#N)=C/c1c(C)[nH]c2ccccc12 | growth | 92 |
| Cc1cc2ccccc2c2cc3ccccc3cc12 | growth | 98.3 |
| OC1CCCN(Cc2ccccc2)C1 (stereo not drawn) | growth | 98.5 |
| CCNC1=CC(=O)c2ncccc2C1=O | growth | -32.2 |

// next entry
Q. Field: growth (SN12C renal). Entry: `O=C(O)Cc1cc(=O)[nH]n(-c2ccccc2)c1=O`
A. 97.9

###

The following compounds are shown together with reported growth values.
System: SF-268 CNS
Assay: NCI-60 one-dose screen, 48 h (100 = growth as untreated, 0 = no growth, -100 = all killed)
Details: 10 µM unless noted
About 83,000 compounds went through this panel and 20% of them were active in at least one assay; those are over-represented in the sample as a whole. Active and inactive are the calls of the source. Rule for the calls: active = growth percent below 10; inactive = the rest.

Known growth results, listed for orientation:
| smi | growth |
| --- | --- |
| N#Cc1ccc(/C=C/C(=O)c2ccccc2)cc1 | 101% (inactive) |
| CC1(C)CC(=O)NC1=O | 100% (inactive) |
| COc1ccc(COC=O)cc1 | 95.9% (inactive) |

Now look at this entry.
Q. Reported growth for SF-268 CNS, given `Cc1cccc(Cl)c1N` ?
A. 105% (inactive)

###

Test system: PC-3 prostate
Assay: NCI-60 one-dose screen, 48 h (100 = growth as untreated, 0 = no growth, -100 = all killed)
Details: 10 µM unless noted
This is part of a sample that, as a whole, favours compounds with a hit. Of some 83,000 tested, about 20% had one in any assay.
observationType: growth (%)
State just the number; it will be interpreted in %.

| compound | growth [%] |
| --- | --- |
| CN(C=O)c1ccccc1 | 88.4 |
| CCOC(=O)CN1CCC(C(=O)OCC)CC1 | 88.8 |
| O=C(O)C#Cc1ccc(Cl)cc1 | 92 |
| CCCCC/C(C)=N\NC(N)=S | 89.4 |

Switching to the query record.
Q. Please look up its growth: C#CCOC(=O)C(N)CS (stereo not given)
A. 90.5
